This collection of values is drawn from ChEMBL document CHEMBL4359818.

SUBJECT OF TEST: Dihydrofolate reductase (Homo sapiens, UniProt P00374)
Sequence (P00374 whole entry): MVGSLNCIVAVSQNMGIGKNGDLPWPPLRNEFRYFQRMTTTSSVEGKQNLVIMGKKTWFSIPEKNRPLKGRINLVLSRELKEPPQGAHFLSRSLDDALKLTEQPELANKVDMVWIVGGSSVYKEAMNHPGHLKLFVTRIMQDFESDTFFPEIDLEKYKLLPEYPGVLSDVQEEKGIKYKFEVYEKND
ASSAY TEXT: Inhibition of recombinant human DHFR using dihydrofolic acid as substrate in presence of NADPH after 15 mins by microplate reader analysis
OUTCOME MEASURE: IC50 (nM)

// solved cases for IC50 follow
SMILES CODE | VALUE
Nc1nc2[nH]c(CCNC(=O)c3cccc(C(=O)NCc4ccccn4)c3)cc2c(=O)[nH]1 | 9.28
Nc1nc2[nH]c(CCNC(=O)c3ccc(C(=O)NCc4ccncc4)cc3)cc2c(=O)[nH]1 | 49
Nc1nc2[nH]c(CCNC(=O)c3ccc(C(=O)NCc4cccnc4)cc3)cc2c(=O)[nH]1 | 37.9
Nc1nc2[nH]c(CCNC(=O)c3cccc(C(=O)NCc4ccncc4)c3)cc2c(=O)[nH]1 | 65.9

1 = Nc1nc2[nH]c(CCNC(=O)c3cccc(C(=O)NCc4cccnc4)c3)cc2c(=O)[nH]1
2 = Nc1nc2[nH]c(CCNC(=O)c3ccc(C(=O)NCc4ccccn4)cc3)cc2c(=O)[nH]1
IN: Out of 1 and 2 , name the one with the higher IC50. Reply with the label of the item you choose.
OUT: 1

----------
SUBJECT OF TEST: Dihydrofolate reductase (Homo sapiens, UniProt P00374)
ASSAY TEXT: Inhibition of recombinant human DHFR using dihydrofolic acid as substrate in presence of NADPH after 15 mins by microplate reader analysis
pIC50: −log10 of the molar value.
OUTCOME MEASURE: pIC50

// solved cases for pIC50 follow
SMILES CODE | pIC50
Nc1nc2[nH]c(CCNC(=O)c3ccccc3C(=O)NCc3ccncc3)cc2c(=O)[nH]1 | ≤ 6.00
Nc1nc2[nH]c(CCNC(=O)c3ccccc3C(=O)NCc3ccccn3)cc2c(=O)[nH]1 | ≤ 6.00

IN: Look up pIC50 for this molecule: Nc1nc2[nH]c(CCNC(=O)c3ccccc3C(=O)NCc3cccnc3)cc2c(=O)[nH]1
OUT: ≤ 6.00
